Test system: 186277-243-T-J2-PDC multi-cell spheroid viability
Protocol: Anticancer human tumor 186277-243-T-J2-PDC patient-derived colon adenocarcinoma cell line growth inhibition [PI3K]
Stated conditions: second compound 0.316 µM; first compound 0.0316 µM; stronger effect = lower value
From the text: Combinatorial screen of targeted agents with the PI3K inhibitors inavolisib, alpelisib, duvelisib, and copanlisib in multi-cell type tumor spheroids A high-throughput screen of multi-cell type tumor spheroids was designed to identify active combinations of targeted small molecules and PI3K pathway inhibitors. […] Compounds. […] If the clinical Cmax for an agent had not been determined, the highest concentration tested was 10 microM. […]
So basically: is viability, T/C under 5%? Then Yes. Not under? Then No.

* Cn1ncc(Cl)c1-c1cc(C(=O)NC(CN)Cc2cccc(F)c2)sc1Cl (stereo not given) + COc1c(OCCCN2CCOCC2)ccc2c3n(c(=NC(=O)c4cnc(N)nc4)nc12)CCN3 | Yes
* C[C@@H](NC(=O)c1ncnc(N)c1Cl)c1ncc(C(=O)Nc2cc(C(F)(F)F)c(Cl)cn2)s1 + Cc1nc(NC(=O)N2CCCC2C(N)=O)sc1-c1ccnc(C(C)(C)C(F)(F)F)c1 | No
* Cn1nccc1Nc1nccc(-c2ccn(C(CO)c3ccc(Cl)c(F)c3)c(=O)c2)n1 (stereo not given) + COc1c(OCCCN2CCOCC2)ccc2c3n(c(=NC(=O)c4cnc(N)nc4)nc12)CCN3 | Yes
* CC(=O)c1c(C)c2cnc(Nc3ccc(N4CCNCC4)cn3)nc2n(C2CCCC2)c1=O + COc1c(OCCCN2CCOCC2)ccc2c3n(c(=NC(=O)c4cnc(N)nc4)nc12)CCN3 | Yes
* C#Cc1c(F)ccc2cc(O)cc(-c3ncc4c(N5CC6CCC(C5)N6)nc(OCC56CCCN5CC(F)C6)nc4c3F)c12 (stereo not given) + CC(Nc1ncnc2nc[nH]c12)c1cc2cccc(Cl)c2c(=O)n1-c1ccccc1 | No

---

Test system: 186277-243-T-J2-PDC multi-cell spheroid viability
Protocol: Anticancer human tumor 186277-243-T-J2-PDC cell line growth inhibition [PI3K];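 note: spheroids exposed to compounds for seven days before viability reading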
Stated conditions: curve of first compound; second compound 0.1 µM
pIC50: −log10 of the molar value.
Catalogue of pIC50 readings, one per entry.
Reported property: pIC50

- C#Cc1c(F)ccc2cc(O)cc(-c3ncc4c(N5CC6CCC(C5)N6)nc(OCC56CCCN5CC(F)C6)nc4c3F)c12 (stereo not given) + Cc1nc(NC(=O)N2CCCC2C(N)=O)sc1-c1ccnc(C(C)(C)C(F)(F)F)c1: 7.33
- CCCS(=O)(=O)Nc1ccc(F)c(C(=O)c2c[nH]c3ncc(-c4ccc(Cl)cc4)cc23)c1F + CC(Nc1ccc2c(c1)OCCn1cc(N3C(=O)OCC3C(F)F)nc1-2)C(N)=O: 5.30
- CC(C)n1nc(-c2ccc3oc(N)nc3c2)c2c(N)ncnc21 + Cc1nc(NC(=O)N2CCCC2C(N)=O)sc1-c1ccnc(C(C)(C)C(F)(F)F)c1: 7.28
- CC(C)NCC(C(=O)N1CCN(c2ncnc3c2C(C)CC3O)CC1)c1ccc(Cl)cc1 (stereo not given) + CC(Nc1ccc2c(c1)OCCn1cc(N3C(=O)OCC3C(F)F)nc1-2)C(N)=O: 6.45
- Cn1ncc(Cl)c1-c1cc(C(=O)NC(CN)Cc2cccc(F)c2)sc1Cl (stereo not given) + CC(Nc1ccc2c(c1)OCCn1cc(N3C(=O)OCC3C(F)F)nc1-2)C(N)=O: 6.65
